TARGET_DESC: Translocator protein (Rattus norvegicus, UniProt P16257)
Sequence (P16257 whole entry, looked up): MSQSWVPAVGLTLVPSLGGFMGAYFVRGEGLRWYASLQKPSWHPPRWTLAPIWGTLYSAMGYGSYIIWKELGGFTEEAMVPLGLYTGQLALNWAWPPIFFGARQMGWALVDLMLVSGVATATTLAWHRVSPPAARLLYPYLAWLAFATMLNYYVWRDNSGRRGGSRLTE
EXPERIMENTAL_DETAILS: Displacement of [3H]-PK 11195 from peripheral-type benzodiazepine receptor of rat ovary membranes
Assay type: cell membranes, Female gonad, Membrane
pIC50: −log10 of the molar value.
Documented pIC50 across a set of molecules
METRIC_NAME: pIC50

STRUCTURE_NOTATION	TARGET_DESC	READOUT_VALUE
CCCN(CCC)C(=O)Cc1c(-c2ccccc2)nc2c(C)cccn12	Translocator protein (Rattus norvegicus, UniProt P16257)	7.38
CCCN(CCC)C(=O)Cc1c(-c2ccccc2)nc2ccc(C(=O)OC)cn12	Translocator protein (Rattus norvegicus, UniProt P16257)	7.57
CCCN(CCC)C(=O)Cc1c(-c2ccccc2)nc2c(Cl)cc(Cl)cn12	Translocator protein (Rattus norvegicus, UniProt P16257)	8.37
CCCN(CCC)C(=O)Cc1c(-c2ccc(Cl)cc2)nc2c(C)cccn12	Translocator protein (Rattus norvegicus, UniProt P16257)	8.55
CCCN(CCC)C(=O)Cc1c(-c2ccc(Cl)cc2)nc2c(N)cccn12	Translocator protein (Rattus norvegicus, UniProt P16257)	8.34

Just for reference, ChEMBL document CHEMBL1132659 is where these values come from.
